Assay: pharmacokinetics and oral bioavailability of S6821
Format: in vivo, rat
Conditions: male, Sprague-Dawley, rat, plasma, po, 30 mg/kg
property name: Cmax (ng/mL)
Numeric only. Scale: ng/mL

# Cmax of Cc1noc(C)c1Cn1cc(N2C(=O)CN(Cc3cccc(O)c3)C2=O)cn1 [S6821] = 38.5

###

Listed compounds paired with reported inhibition at 10 µM
Biological target: CYP3A4 (Homo sapiens)
Sequence (P08684 whole entry): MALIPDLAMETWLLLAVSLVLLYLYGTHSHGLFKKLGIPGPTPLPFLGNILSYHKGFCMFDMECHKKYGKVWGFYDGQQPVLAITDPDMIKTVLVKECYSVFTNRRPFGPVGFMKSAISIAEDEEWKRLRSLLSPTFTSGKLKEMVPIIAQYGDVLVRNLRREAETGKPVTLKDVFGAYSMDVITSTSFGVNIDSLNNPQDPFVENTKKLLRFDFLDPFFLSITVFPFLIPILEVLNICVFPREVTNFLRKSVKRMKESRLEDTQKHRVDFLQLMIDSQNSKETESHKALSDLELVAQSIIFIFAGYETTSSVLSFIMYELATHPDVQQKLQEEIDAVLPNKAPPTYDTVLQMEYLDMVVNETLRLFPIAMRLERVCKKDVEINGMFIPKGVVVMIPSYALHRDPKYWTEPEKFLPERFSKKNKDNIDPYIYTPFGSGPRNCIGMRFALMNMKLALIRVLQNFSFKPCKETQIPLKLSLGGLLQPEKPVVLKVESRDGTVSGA
Test: CYP inhibition, LC–MS/MS assay in human liver microsomes
Assay type: in vitro ADME
Settings: pooled human liver microsomes, probe midazolam
Numeric only. Scale: %

compound | property name | numeric result
Cc1noc(C)c1Cn1cc(N2C(=O)N(Cc3cccc(O)c3)C(C)(C)C2=O)cn1 [S7958] | inhibition at 10 µM | 12

Shifting focus to the compound that follows.
# inhibition at 10 µM of Cc1noc(C)c1Cn1cc(N2C(=O)CN(Cc3cccc(O)c3)C2=O)cn1 [S6821] = 4
